The binders listed here are annotated with their IC50.
assayed-system: T1, human IL-2Rβ (CD122 protein, Fc Tag) (27-239) (human, UniProt P14784 27-239)
T1 construct: range 27-239; Bought protein; also called hu-IL-2Rβ subunit; IL-2Rβ subunit; not shown: Fc tag of the bought protein
T1 sequence (looked up): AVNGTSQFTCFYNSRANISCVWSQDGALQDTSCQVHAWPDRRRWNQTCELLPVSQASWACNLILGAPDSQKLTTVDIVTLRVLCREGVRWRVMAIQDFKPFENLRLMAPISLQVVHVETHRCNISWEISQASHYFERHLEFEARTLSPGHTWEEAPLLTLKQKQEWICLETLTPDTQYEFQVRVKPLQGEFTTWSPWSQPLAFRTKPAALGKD
measurement-description: phage ELISA competition

binder	measurement-type	test-value
WLPCWIAKIGDLCDLD [SEQ ID NO 2828]	IC50	< 100 µM

Task: Which IC50 value belongs to HGRWFPCWMAQVGDLCDLEHSN [SEQ ID NO 2676] ?
Output: < 100 µM

Task: Give the measured IC50 of HWFLDCFLANVGDLCDFFGN [SEQ ID NO 2871] .
Output: < 100 µM

All values here come from patent US20220119492A1.
